experiment: suppressors of polyglutamine aggregation in yeast, 75Q-TubH (AID 1616); conditions: S. cerevisiae 75Q-TubH polyglutamine aggregation suppression; stronger effect = higher value
ASSAY METRIC: aggregation suppression score
In your answer, state the number alone without any accompanying words.

// solved cases for aggregation suppression score follow
// sample Nc1nc2ncc(CNc3ccc(C(=O)N[C@@H](CCC(=O)O)C(=O)O)cc3)nc2c(=O)[nH]1 , its aggregation suppression score was 1.14

The measured aggregation suppression score associated with Oc1c(Cl)cc(Cl)c2cccnc12 reads -0.164

Could you now consider this next molecule?
For record O=C(O)c1cc(=O)c2c(OCC(O)COc3cccc4oc(C(=O)O)cc(=O)c34)cccc2o1 the listed aggregation suppression score is 1.35

* * *

assay: inhibition of endothelial tube formation, primary screen, imaging, VEGF stimulated, CD31 staining, tube area, NPC library (AID 1117340); conditions: VEGF-stimulated ADSC/ECFC co-culture, at 10 µM
Calls of active or inactive are those of the source.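 Rule for the calls: active = compound that reduces growth-factor-driven endothelial tube area in a mixed cell culture, no cutoff stated; inactive = the rest.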
Classes to choose from: y = active, n = inactive

Here's what some known entries look like.
Query: recorded result category for Cc1cc(O)c(Cl)c(C)c1Cl in this test
n

Per the assay record, what outcome was assigned to CN(C)CCN1CCN(c2cccc(Cl)c2)C1=O ?
n

Record request — test call for N[C@@H](CSSC[C@H](N)C(=O)O)C(=O)O
n

Which result was noted for this compound in the test: Fc1ccc(C(c2ccc(F)cc2)N2CCNCC2)cc1
n

Record lookup: outcome of this test for CCCN(CCC)C(=O)C(CCC(=O)OCCCN1CCN(CCOC(=O)Cc2c(C)n(C(=O)c3ccc(Cl)cc3)c3ccc(OC)cc23)CC1)NC(=O)c1ccccc1 (stereo not given) ?
n

Continuing:
Which outcome was entered for the compound CC(C)CCCC(C)CCCC(C)CCCCC(C)CCCC(C)CCCC(C)C (stereo not given) in this test?
n

Would you mind telling me which call this test gave CO[C@@H]1[C@@H](OC)[C@H](C)[C@@](O)(CC(=O)O)O[C@H]1[C@H](C)[C@H]1O[C@@]2(CC[C@@](C)([C@H]3CC[C@@](C)([C@@H]4O[C@@H]([C@H]5O[C@](C)(O)[C@H](C)C[C@@H]5C)C[C@@H]4OC4C[C@H](OC)[C@@H](OC)[C@H](C)O4)O3)O2)C[C@H](O)[C@H]1C (stereo not given in full) ?
y

Recorded test call requested for CC(=O)CC/C=C(\C)CC/C=C(\C)CC/C=C(\C)CCC=C(C)C
n

Name the outcome recorded for Cc1cccc(OCC(O)CNC(C)(C)C)c1C (stereo not given) in the assay.
n

Call for entry CC(C)CCOC(=O)c1ccc(N(C)C)cc1 :
n

Which outcome did this test record for the compound O=C(Nc1ccc(Oc2ccc(Cl)cc2)c(Cl)c1)c1cc(I)cc(I)c1O ?
y

* * *

experiment: HDN33 neuroblastoma growth inhibition, cell-based, chromothripsis tumors, cisplatin or BGB combos (AID 1671450); details: HDN33 neuroblastoma cells, measured here: with BGB IC20 combination, at 0.5 µM, stronger effect = higher value;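 note: cells exposed to compound for four days; 0% = vehicle DMSO and 100% = cell killing by high DMSO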
ASSAY METRIC: inhibition (%)
Response body: numeric value in %, unit text excluded.

Reference set, count: 3
Entry CC(=O)OCC(CCn1cnc2cnc(N)nc21)COC(C)=O — recorded inhibition = -10.2

Noted for O=C1c2c(O)ccc(O)c2C(=O)c2c(NCCNCCO)ccc(NCCNCCO)c21 : its inhibition reads 57.7

So, CCN(CC)CCCC(C)Nc1c2ccc(Cl)cc2nc2ccc(OC)cc12 (stereo not given) ? Its inhibition was -9.01

***
Sure, the documented inhibition for O=c1[nH]cc(F)c(=O)[nH]1 is -26.4

For reference, reported inhibition for O=C(O)CCCc1ccccc1 stands at -6.08

* * *

experiment: stimulators of nuclear beta-catenin in C2C12, primary screen, imaging, WNT3A-conditioned medium, mouse C2C12, NPC library (AID 1117326); conditions: at 10 µM, stronger effect = higher value; note: reference of the scale not given here
A collection of compounds and their measured nuclear beta-catenin stimulation
Express the result in % but write the number alone.

These recorded examples may help you get a feel for the data.
Measured nuclear beta-catenin stimulation of O=C(CS)Nc1ccccc1 : 0.5

Query CCCCCCCCCC(=O)O yields nuclear beta-catenin stimulation of -1.9

// sample O=C(Nc1ccc(Oc2ccc(Cl)cc2)c(Cl)c1)c1cc(I)cc(I)c1O , its nuclear beta-catenin stimulation was 6.2

# context switch: different compound, same nuclear beta-catenin stimulation
Looking up C[C@@H](O)[C@H](N)C(=O)O , I found its nuclear beta-catenin stimulation recorded as 0.7

* * *

test: CellTiter-Glo luminescent readout of SW480 viability loss, NPC library primary (AID 1117343); details: CellTiter-Glo luminescence; at 20 µM (top of the series)
Activity calls are given as the source filed them.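 The calls were made as follows: active = compounds that lower viability of the colon cancer cells in the luminescence readout, with no numeric limit stated; inactive = the rest.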
Parameter call: string, one of YES = active, NO = inactive

Worked cases, answers included:
Field: outcome | Entry: NCc1ccccc1Sc1ccccc1CO
NO

Entry CC(=O)CCC(=O)O : call = ?
NO

Short answer needed: outcome of this test for Cc1coc2ccccc2c1=O ?
NO

I would be grateful if you could indicate the recorded call for CC(=O)Nc1ccc(OC(=O)c2ccccc2OC(C)=O)cc1 .
NO

Any idea what this test logged for CC(=O)OCC(=O)Nc1cc(C#N)cc(NC(=O)COC(C)=O)c1Cl ?
NO

For this compound, state the assay outcome: CC(NN)c1ccccc1 (centres undefined)
NO

Identify the outcome logged in this assay for the compound shown: COc1ccc(C=CC(=O)O)cc1
NO

So what was the verdict on CN=C(N)NC(=O)Nc1c(C)cccc1C in this test?
YES

Others:
Assay result, entry CC(N=C(NC#N)Nc1ccncc1)C(C)(C)C (centres undefined) — outcome?
NO

* * *

assay: glucagon-like peptide 1 release enhancers, primary assay, NCI-H716 cell line, NPC library (AID 1117341); settings: NCI-H716 cells, at 10 µM, stronger effect = higher value; note: reference of the scale not given here
ASSAY METRIC: GLP1 secretion stimulation (%)
Form entry: value (%) — number only.

GLP1 secretion stimulation in this record for CC(C)C(=O)Nc1cccc(C(F)(F)F)c1 : 4.8

# compound COc1ccc(Cl)cc1C(=O)NCCc1ccc(S(=O)(=O)NC(=O)NC2CCCCC2)cc1 ; its GLP1 secretion stimulation = 4.4

The measured GLP1 secretion stimulation associated with C[C@@H](O)[C@H](N)C(=O)O reads 1.6

More entries:
GLP1 secretion stimulation reading for COc1ccc([C@@H]2CC(=O)c3c(O)cc(O[C@@H]4O[C@H](CO[C@@H]5O[C@@H](C)[C@H](O)[C@@H](O)[C@@H]5O)[C@@H](O)[C@H](O)[C@@H]4O)cc3O2)cc1O : -1

GLP1 secretion stimulation reported for this compound Cc1nc(-c2ccc(Cl)cc2)oc1COC(C)(C)C(=O)O : -2.6

For reference, reported GLP1 secretion stimulation for OCCN1CCN(CCCN2c3ccccc3Sc3ccc(Cl)cc32)CC1 stands at 45

* * *

assay: viability loss in pontine glioma line – cell-based, SU-DIPG-XXV, MIPE5.0, CellTiter-Glo, qHTS, dose response (AID 1347065); conditions: CellTiter-Glo ATP luminescence;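 note: cells exposed to compound for 48 hours before ATP readout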
Inconclusive results are not listed. Activity calls are given as the source filed them. The limit is not given here; nearly all actives have AC50 up to about 26 µM.
Classes to choose from: active, inactive

// known answers, use as guide
# lookup: test call for CCCCCN=C(N)N/N=C/c1c[nH]c2ccc(OC)cc12
active

Test call, this molecule: NC(N)=NC(=O)c1nc(Cl)c(N)nc1N
inactive

Call for entry Oc1c(Cl)cc(Cl)c2cccnc12 :
active

Test call, this molecule: NNCCc1ccccc1
inactive

Look up the recorded call for CCc1cc(C(N)=S)ccn1 in this test.
inactive

Look up the recorded call for CC(=O)OCC(CCn1cnc2cnc(N)nc21)COC(C)=O in this test.
inactive

So what was the verdict on O=C1c2c(O)ccc(O)c2C(=O)c2c(NCCNCCO)ccc(NCCNCCO)c21 in this test?
active

Which outcome was assigned to O=S(=O)(O)CCS in this test?
inactive

Hi, do you know how C[C@@H]1CC(=O)NN=C1c1ccc(NN=C(C#N)C#N)cc1 came out in this test?
active

Fill in: this test's call for Cc1onc(-c2ccccc2)c1-c1ccc(S(N)(=O)=O)cc1 is ___
inactive

Further cases:
Hi, do you know how NC(=O)c1ccc(-c2nc(-c3ccc4c(c3)OCO4)c(-c3ccccn3)[nH]2)cc1 came out in this test?
inactive

Which outcome did this test record for the molecule C[C@]12CCC(=O)C=C1CC[C@@H]1[C@@H]2[C@@H](O)C[C@@]2(C)[C@H]1CC[C@]2(O)C(=O)CO ?
inactive

Any idea what this test logged for CCCCNc1cc(C(=O)O)cc(S(N)(=O)=O)c1Oc1ccccc1 ?
inactive

Which outcome was entered for the molecule COc1ccc(-c2oc3ncnc(N)c3c2-c2ccc(NC(=O)Nc3cc(C(F)(F)F)ccc3F)cc2)cc1 in this test?
active

# outcome recorded in this test, key = COC(=O)Nc1nc2ccc(C(=O)c3ccccc3)cc2[nH]1
active

Outcome logged for CCOC(=O)[C@H](CCc1ccccc1)N[C@H]1CCc2ccccc2N(CC(=O)O)C1=O in this assay:
inactive

Could you check what this test reported for OCCN1CCN(CCCN2c3ccccc3Sc3ccc(C(F)(F)F)cc32)CC1 ?
active

Identify the outcome logged in this assay for the molecule shown: CCN(CC)CCCC(C)Nc1c2ccc(Cl)cc2nc2ccc(OC)cc12 (centres undefined)
active

Hello, the source for this data is PubChem BioAssay, in case you need it.
